Biological target: HA-CaSR WT (Rattus norvegicus)
Construct: mGluR5 signal peptide (N); expressed in transfected cells; host or cells: HEK293T
Sequence (P48442 20-1079): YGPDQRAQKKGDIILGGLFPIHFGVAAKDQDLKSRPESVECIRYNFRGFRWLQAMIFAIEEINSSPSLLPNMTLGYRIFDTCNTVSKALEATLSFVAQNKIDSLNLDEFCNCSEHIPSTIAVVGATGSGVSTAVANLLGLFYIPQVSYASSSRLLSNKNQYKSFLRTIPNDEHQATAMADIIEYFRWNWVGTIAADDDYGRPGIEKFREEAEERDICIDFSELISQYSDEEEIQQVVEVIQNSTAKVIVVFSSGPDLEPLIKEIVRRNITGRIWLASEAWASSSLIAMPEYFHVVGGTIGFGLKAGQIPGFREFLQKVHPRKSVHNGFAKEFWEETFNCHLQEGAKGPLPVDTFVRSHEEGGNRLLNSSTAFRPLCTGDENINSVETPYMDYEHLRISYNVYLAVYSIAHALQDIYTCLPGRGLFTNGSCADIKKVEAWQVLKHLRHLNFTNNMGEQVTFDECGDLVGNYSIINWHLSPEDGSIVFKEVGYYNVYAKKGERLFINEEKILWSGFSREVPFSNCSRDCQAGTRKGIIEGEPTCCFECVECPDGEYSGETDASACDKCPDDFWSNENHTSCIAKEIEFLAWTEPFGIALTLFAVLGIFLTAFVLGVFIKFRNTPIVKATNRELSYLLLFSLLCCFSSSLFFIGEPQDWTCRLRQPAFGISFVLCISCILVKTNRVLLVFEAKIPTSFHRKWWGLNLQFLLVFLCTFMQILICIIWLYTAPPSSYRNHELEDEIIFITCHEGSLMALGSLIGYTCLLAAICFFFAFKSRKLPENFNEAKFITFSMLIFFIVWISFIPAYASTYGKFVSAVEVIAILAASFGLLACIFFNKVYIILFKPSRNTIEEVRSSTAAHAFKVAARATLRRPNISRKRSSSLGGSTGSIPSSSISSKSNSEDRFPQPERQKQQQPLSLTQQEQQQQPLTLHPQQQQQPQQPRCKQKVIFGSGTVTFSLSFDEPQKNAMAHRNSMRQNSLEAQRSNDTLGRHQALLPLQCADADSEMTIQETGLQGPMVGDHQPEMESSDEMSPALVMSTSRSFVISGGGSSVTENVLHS
Assay: IP-One assay (IP1 accumulation, Gq signaling), HEK293T transiently transfected
Type: cell-based
Conditions: Ca^2+ alone, Table 3
measured parameter: EC50

Notebook: [Ca+2] , EC50 read as 3.21 mM

----------
Target: HA-S170A CaSR mutant (ATD mutant) (Rattus norvegicus, UniProt P48442, S170A)
Construct: mGluR5 signal peptide (N)
Assay: IP-One assay, HEK293T transiently transfected
Conditions: HA-S170A, Ca^2+ alone
Description: Human embryonic kidney (HEK) 293T cells were cultured in DMEM supplemented with 10% dFBS and 1% P/S at 37 °C and 5% CO2. 48 h prior to assay, transient transfection was performed using Lipofectamine 2000 as the transfection reagent. […] Functional activity was measured using the IP-One assay, which is an IP1 accumulation assay. […] The 384-well plate was incubated for 1 h at RT in dark before being measured on an EnVision plate reader (PerkinElmer, Waltham, MA, USA). […]
pEC50: −log10 of the molar value.
measured parameter: pEC50

// pEC50 lookup, compound = [Ca+2] , result: < 1.35
